- Tested on: SN12C
- TEST_DESCRIPTION: NCI tumour cell line growth inhibition, 48 h
Activity calls are given as the source filed them. Rule as the data show it: active = GI50 up to about 1.1 µM and inactive = higher.
# reported GI50; entries follow

COMPOUND	GI50
CCOC(=O)Cn1c(=O)c2cc(-c3ccccc3)cc3c(Cl)nc4c(OC)c(OC)cc1c4c32	16.2 µM (inactive)
O=[N+]([O-])c1cc([As](Br)c2ccc(O)c([N+](=O)[O-])c2)ccc1O	1.65 µM (inactive)

Could you now look at the following compound, please?
Problem: Report GI50, nothing else, for this compound: C=CCN1CCC(OC(=O)C(O)(/C=C\CC)C2CCCC2)CC1 (stereo not drawn)
Solution: > 100 µM (inactive)

---

- System: SR
- TEST_DESCRIPTION: NCI tumour cell line growth inhibition, 48 h
Active and inactive are the calls of the source. Rule as the data show it: active = GI50 up to about 1.1 µM and inactive = higher.
ASSAY_METRIC: GI50

Example cases with answers are listed next.
COMPOUND	SYSTEM	GI50
CCOC(=O)Cn1c(=O)c2cc(-c3ccccc3)cc3c(Cl)nc4c(OC)c(OC)cc1c4c32	SR	1.99 µM (inactive)
COc1ccc(CNc2cnc3ccc(N)cc3n2)cc1OC	SR	> 100 µM (inactive)
C/C(Cl)=N/OC(=O)Nc1ccc(F)c([N+](=O)[O-])c1	SR	8.57 µM (inactive)

Problem: Give GI50 for the following compound: CC(=O)c1ccc(N2C(=O)C3c4[nH]c5ccccc5c4C4CCC(C(C)(C)C)CC4C3C2=O)cc1 (stereo unspecified)
Solution: 26.7 µM (inactive)

Problem: Hello, please tell me recorded GI50 for this one: `CC(C)(Oc1ccc(C(=O)c2ccc(Cl)cc2)cc1Cl)C(=O)Nc1c(Cl)cccc1Cl`
Solution: 9.75 µM (inactive)

Problem: For the compound NCCCCC(N)C(=O)N1CCN(c2nc(N3CCCC3)c3nc(Cl)c(NCc4ccccc4)nc3n2)CC1 (stereo unspecified) , give its measured GI50 value.
Solution: 18.1 µM (inactive)

---

- Tested on: BT-549
- TEST_DESCRIPTION: NCI tumour cell line growth inhibition, 48 h
Calls of active or inactive are those of the source. Rule as the data show it: active = GI50 up to about 1.1 µM and inactive = higher.
ASSAY_METRIC: GI50

MOLECULE	SYSTEM	RESULT
CO/C(N)=C(C#N)/N=C/c1ccsc1	BT-549	20.4 µM (inactive)

Problem: For BT-549, give GI50 of the listed molecule: CC1(C)CCCCCCC2CC2CCCCCC(C)(C)C1=O (centres undefined)
Solution: > 100 µM (inactive)

Problem: Provide GI50, tested on BT-549, for O=C(NN1C(=O)C(Cl)C1c1ccc(Cl)cc1)c1c(Cl)c(Cl)c(Cl)c(Cl)c1-c1nc2ccccc2[nH]1 (centres undefined) .
Solution: 24.4 µM (inactive)

---

- Test system: Hs-578T
- TEST_DESCRIPTION: NCI tumour cell line growth inhibition, 48 h
Active and inactive are the calls of the source. Rule as the data show it: active = GI50 up to about 1.1 µM and inactive = higher.
Response enum: active, inactive

Below are worked cases with known answers.
COMPOUND	LABEL_CLASS
CNc1ccccc1S(=O)(=O)c1ccccc1[N+](=O)[O-]	inactive
O=c1ccn(C2OC(CO)C(O)C2[Se]c2ccccc2)c(=O)[nH]1 (stereo not drawn)	inactive
Cc1cn([C@H]2C=C[C@@H](CO)O2)c(=O)[nH]c1=O	inactive
Oc1cccc(-c2cc(=S)ss2)c1	inactive

Problem: Just curious, what result did O=C1C(Cl)C2(CC(/C=C/c3ccccc3O)=NN2c2cccc(S(=O)(=O)O)c2)N1c1nc2ccccc2s1 (stereo not drawn) get here?
Solution: inactive

---

- Test system: RPMI-8226
- TEST_DESCRIPTION: NCI tumour cell line growth inhibition, 48 h
Active and inactive are the calls of the source. No stated cut-off is given here; in the data, active = GI50 up to about 1.1 µM and inactive = higher.
ASSAY_METRIC: GI50

COMPOUND	GI50
C=CCN1CCC(OC(=O)C(O)(/C=C\CC)C2CCCC2)CC1 (stereo not drawn)	> 100 µM (inactive)
CCn1c(=O)nc2n(-c3ccc(SC)cc3)c3ccccc3nc-2c1=O	71.1 µM (inactive)

Now consider the entry below.
Problem: Read the entry `CCN1C(=O)C(=C/C=C/c2ccc(N(CC)CC)cc2)C(=O)N(CC)C1=S` and write its reported GI50.
Solution: > 100 µM (inactive)

---

- Tested on: DU-145
- TEST_DESCRIPTION: NCI tumour cell line growth inhibition, 48 h
The source made the active and inactive calls. No stated cut-off is given here; in the data, active = GI50 up to about 1.1 µM and inactive = higher.
// allowed return values: label 1 for active, label 0 for inactive

Sample answers from the record:
COMPOUND	LABEL_CLASS
COc1cc(/C=C2\N=C(c3ccccc3)N(/N=C/c3cc4cc(C)ccc4nc3Cl)C2=O)ccc1O	label 0
Cc1cc2c(C)cc(=O)[nH]c2cc1N	label 0
CC1(C)COC(c2cccc(C(=O)c3ccccc3)c2)=N1	label 0
Cc1ccc(N(C(=O)Nc2ccccc2)C2=NCC(C)S2)cc1C (configuration not stated)	label 0
COc1cc(C2SCC(=O)N2c2ccc(Cl)cc2)cc(I)c1O (configuration not stated)	label 0
CCc1c(CN)c(CC)c(CNC2=NCCN2)c(CC)c1CNC1=NCCN1	label 0

Problem: I'd appreciate the recorded outcome for O=C1c2c[nH]nc2C(c2ccccc2)N1c1ccccc1 (configuration not stated) from this test.
Solution: label 0

Problem: // param item: `CC(=O)Nc1cc2ccc(=O)oc2cc1Cl` ; yields the recorded call
Solution: label 0

Problem: How did this test come out for `O=C(CC(=O)c1ccccc1NC1=Cc2ccccc2C(=O)C1=O)C(=O)NC1=C(Cl)C(=O)c2ccccc2C1=O` ?
Solution: label 0

Problem: Which outcome was entered for the compound CCOC(=O)C(NC(=O)CC)(Nc1ccc(F)c(Cl)c1)C(F)(F)F (configuration not stated) in this test?
Solution: label 0

Problem: Dear colleague, could you share the recorded outcome for Nc1nc2c(c(=O)[nH]1)C(c1ccc(Cl)cc1)C=C(c1ccccc1)N2 (configuration not stated) when you have a moment?
Solution: label 0

Problem: Recorded call for `CC1(C)CC[C@]2(C(=O)O)CC[C@]3(C)C(=CC[C@@H]4[C@@]5(C)C[C@H](O)[C@H](O)[C@@](C)(C(=O)O)[C@@H]5CC[C@]43C)[C@@H]2C1` ?
Solution: label 0

---

- System: LXFL 529
- TEST_DESCRIPTION: NCI tumour cell line growth inhibition, 48 h
Activity calls are given as the source filed them. No stated cut-off is given here; in the data, active = GI50 up to about 1.1 µM and inactive = higher.
One label from this list, please: 1 (active), 0 (inactive)

Observe how each entry below is paired with its result.
N#CCCN(CCC#N)c1ccc(/C=C(\NC(=O)c2cc([N+](=O)[O-])ccc2Cl)C(=O)Nc2ccccc2)cc1 0
Cc1ccc(S(=O)(=O)NNC(=O)c2sc(-c3nc(C)c(C(=O)NNS(=O)(=O)c4ccc(C)cc4)s3)nc2C)cc1 0

Problem: Please share the test call associated with `O=C(CCN1CCCCC1)Nc1ccc2c(c1)C(=O)c1ccc(NC(=O)CCN3CCCCC3)cc1C2=O` .
Solution: 0

Problem: Which outcome did this test record for the compound `Cc1cc(N(CCC#N)CCC#N)ccc1/C=C(\NC(=O)/C=C/c1ccccc1)C(=O)Nc1ccc(Cl)cc1` ?
Solution: 1

---

- Test system: RXF 393
- TEST_DESCRIPTION: NCI tumour cell line growth inhibition, 48 h
Calls of active or inactive are those of the source. Rule as the data show it: active = GI50 up to about 1.1 µM and inactive = higher.
Your reply should match one of these outcome classes. t for active, f for inactive

The following molecules have reported results that may help.
MOLECULE	LABEL_CLASS
CN(C)C(=O)Oc1c(-c2ccccc2)c(=O)n2c3ccccc3n3c(=O)n(C)c(=O)c1c23	f
Cc1nc(C(N)=S)sc1C(=O)C/C(=N/N)C(=O)Nc1ccc(Cl)cc1	f
COC(=O)c1ccc2c(O)c(O)ccc2c1	f

Problem: Would you mind telling me which call this test gave C/C=C(\C)c1cc(=O)c2c(C)cc3c(c2o1)C(=O)c1c(O)c(C2CC(C)(N(C)C)C(OC(C)=O)C(C)O2)cc(C2CC(N(C)C)C(O)C(C)O2)c1C3=O (configuration not stated) ?
Solution: t

---

- Test system: K562
- TEST_DESCRIPTION: NCI tumour cell line growth inhibition, 48 h
Active and inactive are the calls of the source. Cut-off read from the data, not from the text of the source: active = GI50 up to about 1.1 µM and inactive = higher.
ASSAY_METRIC: GI50

Some molecules with known GI50 results, for comparison:
MOLECULE	SYSTEM	GI50
CC(=O)NCCCCNCCCNC(C)=O	K562	> 100 µM (inactive)
COc1ccccc1C(=O)c1ccc2ccccc2c1	K562	4 µM (inactive)
COc1ccc(C2CC(=O)CC(c3ccc(OC)cc3)C23C(=O)NC(=S)NC3=O)cc1 (stereo not given)	K562	> 100 µM (inactive)
COC1CCC2C(NS(=O)(=O)c3ccc(C)cc3)CCCC2O1.Cc1ccc(S(=O)(=O)NC(C)(C)C=O)cc1 (stereo not given)	K562	9.68 µM (inactive)

# evaluate next
Problem: Look up and state reported GI50 for `CN1Nc2ccccc2CC1=O`
Solution: > 100 µM (inactive)

---

- System: HCC 2998
- TEST_DESCRIPTION: NCI tumour cell line growth inhibition, 48 h
The source made the active and inactive calls. Rule as the data show it: active = GI50 up to about 1.1 µM and inactive = higher.
# valid calls are yes (active), no (inactive); nothing else

Observe how each entry below is paired with its result.
MOLECULE	LABEL_CLASS
O=c1c2cc(Br)cc(Br)c2nc(CCCl)n1-c1ccc(O)c([N+](=O)[O-])c1	no
O=C(CCN1CCCCC1)Nc1ccc2c(c1)C(=O)c1ccc(NC(=O)CCN3CCCCC3)cc1C2=O	no
O/N=C1\SC(=N\O)/C(=N/O)S\C1=N/O	no
CCOc1ccccc1N1CSc2nnc(-c3ccccc3)n2C1	no
O=C(OCc1ccccc1[N+](=O)[O-])N1c2ccccc2[C@@]23O[C@]24CCC[C@H]3C#C/C=C\C#C[C@H]14	no
C(=C1\CCC/C(=C/c2ccccc2)C1=NNc1ccccc1)/c1ccccc1	no

Problem: Tell me the recorded outcome of this test for `CC1(C)CCC2=C(O1)/C(=N\Nc1ccc(S(N)(=O)=O)cc1)c1ccccc1C2=O` .
Solution: no

Problem: Which result was noted for this molecule in the test: `CNC(=O)CCCN(C)C(=O)CCCCC(=O)N(C)C`
Solution: no

Problem: Hi, do you know how `O=C(O)/C=C(/CC(=O)O)C(=O)O` came out in this test?
Solution: no

Problem: So what was the verdict on `COc1cc2c(c(OC)c1OC)C(=O)[C@@H]1[C@H]2N1C(N)=O` in this test?
Solution: no

Problem: Each molecule tested received a call. Report the one for `Clc1ccc2sc(-n3ccc4ccccc43)nc2c1` .
Solution: no

Every entry's value here was drawn from ChEMBL document CHEMBL1201862.
